- Assayed target: T1, RADIL, Q96JH8
- T1 sequence (Q96JH8 971-1071, limits assumed, looked up): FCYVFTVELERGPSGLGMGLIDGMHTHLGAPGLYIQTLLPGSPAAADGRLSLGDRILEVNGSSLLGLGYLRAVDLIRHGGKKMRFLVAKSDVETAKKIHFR
- Assay name: holdup assay
- Parameters: key: below the threshold = too weak to quantify, mostly under pKd 3.1 to 4
- Protocol conditions: plain residues with an end cap or a label only (N-terminal biotin on a linker: ahx)
Observation type: pKd

1. PKMKLNETSF [SHKBP1, Q8TBC3]
below the threshold
2. SAPATLSSRA [PDLIM2, Q96JY6]
below the threshold
3. ADENEQVSAV [RAPGEF6, Q8TEU7]
below the threshold
4. VNENQKEYFF [CNTNAP4, Q9C0A0]
4.3
5. YNSFLSVTTV [PDZRN3, Q9UPQ7]
4.2
6. SKKNELFSNL [NHERF1, O14745]
below the threshold
7. KEYDDELTFF [USH1C, Q9Y6N9]
3.78
8. HSATSVHTSV [MTMR1, Q13613]
below the threshold
9. AKPQPVDSWV [ARVCF, O00192]
4.46
10. KDECVIATEV [DLL1, O00548]
3.61
